Test system: H929 cells
ASSAY PROTOCOL: Cell viability assay (H929 10 FBS)
Assay type: cell-based
ASSAY CONTEXT: Homo sapiens, NCI-H929, 24 h, CellTiter-Glo or ATPlite, read-out: H929_10FBS IC50
pIC50: −log10 of the molar value.
MEASUREMENT LABEL: pIC50

Dear colleague, I am looking for the recorded pIC50 of the following compound: CO[C@H]1/C=C/COC(C)(C)C(=O)N=S(=O)(NC(=O)c2ccccc2)c2ccc3c(c2)N(C[C@@H]2CC[C@H]21)C[C@@]1(CCCc2cc(Cl)ccc21)CO3 (stereo partly drawn) 6.30 to 7.00

Note, next up: CO[C@H]1/C=C/COC(C)(C)C(=O)N=S(=O)(NC(=O)c2cn(C)nc2C)c2ccc3c(c2)N(C[C@@H]2CC[C@H]21)C[C@@]1(CCCc2cc(Cl)ccc21)CO3 (stereo partly drawn) > 7.00

And COC1CN(C(=O)NS2(=O)=NC(=O)C(C)(C)OCC=CC(OC)C3CCC3CN3CC4(CCCc5cc(Cl)ccc54)COc4ccc2cc43)C1 (stereo not drawn) ? > 7.00

* * *

MEASUREMENT TARGET: MCL-1 (Homo sapiens)
Sequence (Q07820 whole entry): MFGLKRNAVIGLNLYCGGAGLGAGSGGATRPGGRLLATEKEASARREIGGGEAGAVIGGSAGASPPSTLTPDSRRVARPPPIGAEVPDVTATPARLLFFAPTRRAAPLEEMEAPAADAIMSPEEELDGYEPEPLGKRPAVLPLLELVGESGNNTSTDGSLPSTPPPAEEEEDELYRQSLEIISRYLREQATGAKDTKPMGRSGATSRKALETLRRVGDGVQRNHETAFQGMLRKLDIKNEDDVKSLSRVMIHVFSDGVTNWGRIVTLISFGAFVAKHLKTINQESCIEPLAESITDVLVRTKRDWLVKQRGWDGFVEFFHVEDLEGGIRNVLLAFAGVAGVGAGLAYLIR
pKi: −log10 of the molar value.
Parameter: pKi. Scope: all listed entries.

Field: example entries. Status: answers known.
INSERT INTO measurements (compound, measurement_label, measured_result) VALUES
  ('CO[C@H]1/C=C/COC(C)(C)C(=O)N=S(=O)(NC(=O)N2CC(N(C)C)C2)c2ccc3c(c2)N(C[C@@H]2CC[C@H]21)C[C@@]1(CCCc2cc(Cl)ccc21)CO3 (stereo partly drawn)', 'pKi', '> 9.00'),
  ('COC1CN(C(=O)NS2(=O)=NC(=O)C(C)(C)OCC=CC(OC)C3CCC3CN3CC4(CCCc5cc(Cl)ccc54)COc4ccc2cc43)C1 (stereo not drawn)', 'pKi', '> 9.00');

We next turn to a different compound, shown below.
May I ask what pKi has been recorded for CO[C@H]1/C=C/COC(C)(C)C(=O)N=S(=O)(NC(=O)C2CCOCC2)c2ccc3c(c2)N(C[C@@H]2CC[C@H]21)C[C@@]1(CCCc2cc(Cl)ccc21)CO3 (stereo partly drawn) ? > 9.00

* * *

MEASUREMENT TARGET: MCL-1 (Homo sapiens)
Consider the following molecules and their measured Ki readings.

INSERT INTO results (molecule, measurement_label, measured_result) VALUES
  ('CO[C@H]1/C=C/COC(C)(C)C(=O)N=S(=O)(NC(=O)c2cn(C)nc2C)c2ccc3c(c2)N(C[C@@H]2CC[C@H]21)C[C@@]1(CCCc2cc(Cl)ccc21)CO3 (stereo partly shown) [Example 17]', 'Ki', '< 1 nM');

Any idea what Ki was measured for CO[C@H]1/C=C/COC(C)(C)C(=O)N=S(=O)(NC(=O)c2cnn(C)c2C)c2ccc3c(c2)N(C[C@@H]2CC[C@H]21)C[C@@]1(CCCc2cc(Cl)ccc21)CO3 (stereo partly shown) [Example 18] ? < 1 nM

Would you kindly repeat that for CN(C)C(=O)O[C@H]1/C=C/COC(C)(C)C(=O)N=S(=O)(NC(=O)c2cnn(C)c2)c2ccc3c(c2)N(C[C@@H]2CC[C@H]21)C[C@@]1(CCCc2cc(Cl)ccc21)CO3 (stereo partly shown) [Example 53] ? < 1 nM

Similarly, CC(C)C(=O)NS1(=O)=NC(=O)C(C)(C)OC/C=C/[C@H](OCCN2CCCC2)[C@@H]2CC[C@H]2CN2C[C@@]3(CCCc4cc(Cl)ccc43)COc3ccc1cc32 (stereo partly shown) [Example 54] ? < 1 nM

What about this molecule? COC1C=CCOC(C)(C)C(=O)N=S(=O)(NC(=O)N2CC(O)C2)c2ccc3c(c2)N(CC2CCC21)CC1(CCCc2cc(Cl)ccc21)CO3 (stereo not shown) [30 or 29] > 1 nM

Further, for CC(C)C(=O)NS1(=O)=NC(=O)C(C)(C)OC/C=C/[C@H](OCCN(C)C)[C@@H]2CC[C@H]2CN2C[C@@]3(CCCc4cc(Cl)ccc43)COc3ccc1cc32 (stereo partly shown) [Example 55] ? > 1 nM

Same question for Cc1nn(C)cc1C(=O)NS1(=O)=NC(=O)C(C)(C)OC/C=C/[C@H](OC(=O)N(C)C)[C@@H]2CC[C@H]2CN2C[C@@]3(CCCc4cc(Cl)ccc43)COc3ccc1cc32 (stereo partly shown) [Example 51] please. < 1 nM

Sourced from patent US20230212191A1
